- target.of.assay: human SMO (amino acids 181-787) (Homo sapiens)
- Construct: V5-His (named only in the vector, pSecTag-FRT/V5-His); expressed in transfected cells; membranes prepared
- Sequence (Q99835 181-787): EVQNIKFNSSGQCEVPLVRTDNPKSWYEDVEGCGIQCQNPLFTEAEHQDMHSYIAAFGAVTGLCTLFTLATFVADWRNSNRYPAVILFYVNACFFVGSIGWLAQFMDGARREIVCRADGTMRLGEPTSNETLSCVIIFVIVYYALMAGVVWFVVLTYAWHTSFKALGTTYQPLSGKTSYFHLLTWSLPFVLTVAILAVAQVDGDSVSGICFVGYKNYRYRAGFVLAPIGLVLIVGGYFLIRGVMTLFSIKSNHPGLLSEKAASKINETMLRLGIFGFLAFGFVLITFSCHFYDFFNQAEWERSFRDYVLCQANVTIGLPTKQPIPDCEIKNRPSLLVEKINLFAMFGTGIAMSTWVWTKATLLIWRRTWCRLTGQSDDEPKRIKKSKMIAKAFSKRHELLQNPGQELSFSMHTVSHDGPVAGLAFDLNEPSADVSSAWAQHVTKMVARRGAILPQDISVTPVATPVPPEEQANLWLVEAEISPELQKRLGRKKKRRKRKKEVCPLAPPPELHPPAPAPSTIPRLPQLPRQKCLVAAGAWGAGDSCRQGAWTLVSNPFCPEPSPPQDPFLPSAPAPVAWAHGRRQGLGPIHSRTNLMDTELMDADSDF
- method.summary: SMO radioligand competition binding assay
- conditions.used: 4.3 nM+/−5.2 nM, N=5; read-out: IC50, SMO competition binding, value with spread
- Method: SMO Radioligand Competition Binding Assay Membranes were prepared from a stable cell line created in HEK293FlpIn-TetR cells (Invitrogen) using Flp recombinase-mediated insertion of the pSecTag-FRT/V5-His vector containing a cDNA encoding amino acids 181-787 of human Smo fused to the murine Igk leader sequence to produce a cell surface expressed […] protein. LacZ-negative cells were analyzed for binding a well characterized cyclopamine-competitive tritiated Smo antagonist^22. […]
assay.endpoint: IC50 (nM)
One number for each entry, in nM.

Note to self: IC50 recorded for `CN1CC[C@@H](NC(=O)Nc2ccc(C#N)cc2)C[C@@H]1c1nc2ccccc2[nH]1` was 4.3

Measured values drawn from patent US9611330B2 for this set.
